- TEST_PROTOCOL: MRT in CD-1 mouse at 20 mg/kg, po by LC-MS/MS method
- Format: ADME, organism-based
- EXPERIMENTAL_SETUP: in vivo

{"columns": ["STRUCTURE_SMILES", "UNIT_ANNOTATION", "MRT"],
 "data": [
  ["Cc1n[nH]c2ccc(-c3cc(N[C@@H](CO)c4ccccc4)cnc3-c3cc(F)ccc3O)cc12", "h", 3.59]
]}

###

- TARGET_UNDER_TEST: Mitogen-activated protein kinase 1 (Homo sapiens, UniProt P28482)
- Sequence (P28482 whole entry): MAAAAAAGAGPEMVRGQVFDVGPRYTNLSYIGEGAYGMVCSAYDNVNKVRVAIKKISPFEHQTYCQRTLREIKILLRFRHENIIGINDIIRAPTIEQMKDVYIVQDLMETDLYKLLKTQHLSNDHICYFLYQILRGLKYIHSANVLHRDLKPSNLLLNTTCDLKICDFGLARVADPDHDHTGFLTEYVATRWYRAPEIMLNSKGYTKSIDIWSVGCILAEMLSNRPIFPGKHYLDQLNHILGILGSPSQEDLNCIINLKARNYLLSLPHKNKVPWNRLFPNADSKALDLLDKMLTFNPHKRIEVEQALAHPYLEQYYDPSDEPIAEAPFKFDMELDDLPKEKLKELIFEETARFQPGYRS
- TEST_PROTOCOL: Inhibition of Erk2 (unknown origin) by FRET assay
pIC50: −log10 of the molar value.
METRIC_NAME: pIC50

{"columns": ["STRUCTURE_SMILES", "INEQUALITY_OPERATOR", "REPORTED_VALUE"],
 "data": [
  ["Cc1n[nH]c2ccc(-c3cc(N[C@@H](CO)c4ccccc4)cnc3-c3cc(Cl)ccc3O)cc12", "=", 6.02],
  ["Cc1n[nH]c2ccc(-c3cc(N[C@@H](CO)c4ccccc4)cnc3-c3cc(F)ccc3O)cc12", "=", 6.24],
  ["OC[C@H](Nc1cnc(-c2cc(Cl)ccc2O)c(-c2ccc3cnccc3c2)c1)c1ccccc1", "=", 6.71],
  ["Cc1n[nH]c2ccc(-c3cc(N[C@@H](CO)c4ccccc4)cnc3-c3ccc(F)cc3O)cc12", "<", 6.00]
]}

###

- TARGET_UNDER_TEST: Vascular endothelial growth factor receptor 1 (Homo sapiens, UniProt P17948)
- Sequence (P17948 whole entry): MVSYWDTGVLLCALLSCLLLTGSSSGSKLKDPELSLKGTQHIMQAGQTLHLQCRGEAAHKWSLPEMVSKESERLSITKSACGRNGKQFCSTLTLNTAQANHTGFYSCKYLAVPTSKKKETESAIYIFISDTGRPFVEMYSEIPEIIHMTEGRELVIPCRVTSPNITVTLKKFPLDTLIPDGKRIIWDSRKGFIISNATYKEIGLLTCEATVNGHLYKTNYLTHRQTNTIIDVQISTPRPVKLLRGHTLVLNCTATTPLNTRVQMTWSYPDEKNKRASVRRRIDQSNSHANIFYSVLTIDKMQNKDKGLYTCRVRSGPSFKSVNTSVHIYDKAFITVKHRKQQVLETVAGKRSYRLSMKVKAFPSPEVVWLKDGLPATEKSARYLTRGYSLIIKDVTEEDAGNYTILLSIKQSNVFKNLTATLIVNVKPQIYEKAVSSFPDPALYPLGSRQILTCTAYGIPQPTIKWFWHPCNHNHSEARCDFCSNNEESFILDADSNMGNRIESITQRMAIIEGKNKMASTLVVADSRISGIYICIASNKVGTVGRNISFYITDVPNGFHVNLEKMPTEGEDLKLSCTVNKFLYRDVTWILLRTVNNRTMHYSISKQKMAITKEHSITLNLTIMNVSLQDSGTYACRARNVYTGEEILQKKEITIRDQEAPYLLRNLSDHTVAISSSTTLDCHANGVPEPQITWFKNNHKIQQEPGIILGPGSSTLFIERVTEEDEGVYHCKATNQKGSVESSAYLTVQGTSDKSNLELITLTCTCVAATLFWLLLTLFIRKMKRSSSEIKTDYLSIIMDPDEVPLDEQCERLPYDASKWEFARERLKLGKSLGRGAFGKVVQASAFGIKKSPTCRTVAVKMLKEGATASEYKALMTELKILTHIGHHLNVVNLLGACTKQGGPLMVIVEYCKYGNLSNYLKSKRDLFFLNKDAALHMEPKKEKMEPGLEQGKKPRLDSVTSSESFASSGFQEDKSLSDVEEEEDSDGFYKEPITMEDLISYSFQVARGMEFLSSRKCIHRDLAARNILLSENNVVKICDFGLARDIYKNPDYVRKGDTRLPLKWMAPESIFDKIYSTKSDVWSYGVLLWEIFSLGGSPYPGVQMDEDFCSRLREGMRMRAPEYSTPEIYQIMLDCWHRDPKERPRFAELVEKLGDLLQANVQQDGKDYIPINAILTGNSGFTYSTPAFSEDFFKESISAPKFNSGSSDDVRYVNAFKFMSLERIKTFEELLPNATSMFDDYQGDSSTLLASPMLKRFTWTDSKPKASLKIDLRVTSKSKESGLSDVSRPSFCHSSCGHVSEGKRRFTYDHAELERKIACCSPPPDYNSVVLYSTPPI
- TEST_PROTOCOL: Inhibition of recombinant VEGFR-1 (unknown origin) using poly (Glu,Tyr) 4:1 as substrate after 60 mins by ELISA
Parameter IC50: see the listing below.

{"columns": ["STRUCTURE_SMILES", "TARGET_UNDER_TEST", "IC50"],
 "data": [
  ["Cc1n[nH]c2ccc(-c3cc(N[C@@H](CO)c4ccccc4)cnc3-c3cc(Cl)ccc3O)cc12", "Vascular endothelial growth factor receptor 1 (Homo sapiens, UniProt P17948)", "> 10 nM"],
  ["Cc1n[nH]c2ccc(-c3cc(N[C@@H](CO)c4ccccc4)cnc3-c3ccc(F)cc3O)cc12", "Vascular endothelial growth factor receptor 1 (Homo sapiens, UniProt P17948)", "> 10 nM"],
  ["OC[C@H](Nc1cnc(-c2cc(Cl)ccc2O)c(-c2ccc3cnccc3c2)c1)c1ccccc1", "Vascular endothelial growth factor receptor 1 (Homo sapiens, UniProt P17948)", "> 10 nM"],
  ["Cc1n[nH]c2ccc(-c3cc(N[C@@H](CO)c4ccccc4)cnc3-c3cc(F)ccc3O)cc12", "Vascular endothelial growth factor receptor 1 (Homo sapiens, UniProt P17948)", "1 to 10 nM"]
]}

###

- TEST_PROTOCOL: Half life in CD-1 mouse at 5 mg/kg, iv by LC-MS/MS method
- Type: ADME, organism-based
- EXPERIMENTAL_SETUP: in vivo

{"columns": ["STRUCTURE_SMILES", "half-life / h"],
 "data": [
  ["Cc1n[nH]c2ccc(-c3cc(N[C@@H](CO)c4ccccc4)cnc3-c3cc(F)ccc3O)cc12", 2.5]
]}

###

- TARGET_UNDER_TEST: Fibroblast growth factor receptor 2 (Homo sapiens, UniProt P21802)
- Sequence (P21802 whole entry): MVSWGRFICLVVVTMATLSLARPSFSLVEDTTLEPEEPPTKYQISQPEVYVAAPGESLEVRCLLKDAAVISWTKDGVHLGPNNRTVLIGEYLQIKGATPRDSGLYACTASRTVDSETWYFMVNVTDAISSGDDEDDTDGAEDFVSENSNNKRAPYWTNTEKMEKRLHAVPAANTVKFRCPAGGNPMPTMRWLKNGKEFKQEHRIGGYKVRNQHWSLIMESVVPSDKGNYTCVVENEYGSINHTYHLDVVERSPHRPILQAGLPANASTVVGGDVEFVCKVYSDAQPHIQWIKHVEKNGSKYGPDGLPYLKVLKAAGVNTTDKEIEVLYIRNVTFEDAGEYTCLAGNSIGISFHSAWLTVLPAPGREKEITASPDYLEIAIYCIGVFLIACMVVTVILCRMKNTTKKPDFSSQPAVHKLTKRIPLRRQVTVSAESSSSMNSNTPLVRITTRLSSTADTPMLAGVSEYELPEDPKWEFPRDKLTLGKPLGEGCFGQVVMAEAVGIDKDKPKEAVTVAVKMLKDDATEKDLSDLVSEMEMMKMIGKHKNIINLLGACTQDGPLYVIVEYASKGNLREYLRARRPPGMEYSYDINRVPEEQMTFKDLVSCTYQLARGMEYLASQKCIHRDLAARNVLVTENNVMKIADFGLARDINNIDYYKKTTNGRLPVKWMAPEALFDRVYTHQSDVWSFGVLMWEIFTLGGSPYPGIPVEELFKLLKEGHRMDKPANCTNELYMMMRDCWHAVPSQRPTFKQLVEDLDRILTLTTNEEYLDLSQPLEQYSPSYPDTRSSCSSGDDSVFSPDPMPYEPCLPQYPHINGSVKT
Mark Y only for IC50 values smaller than 50 nM; exact matches and larger values are N.

{"columns": ["STRUCTURE_SMILES", "DISCRETE_LABEL"],
 "data": [
  ["CC(=O)Nc1ccccc1-c1ncc(N[C@@H](CO)c2ccccc2)cc1-c1ccc2[nH]nc(C)c2c1", "N"],
  ["CC(=O)Nc1ccc(-c2cc(N[C@@H](CO)c3ccccc3)cnc2-c2cc(Cl)ccc2O)cc1", "N"],
  ["Cc1n[nH]c2ccc(-c3cc(N[C@@H](CO)c4ccccc4)cnc3-c3cc(C(C)C)ccc3O)cc12", "N"],
  ["OC[C@H](Nc1cnc(-c2cc(Cl)ccc2O)c(-c2ccc3[nH]ccc3c2)c1)c1ccccc1", "N"],
  ["Cc1n[nH]c2ccc(-c3cc(N[C@@H](CO)c4ccccc4)cnc3-c3cc(F)cc(F)c3O)cc12", "Y"],
  ["Cc1n[nH]c2ccc(-c3cc(N[C@@H](CO)c4ccccc4)cnc3-c3ccccc3O)cc12", "Y"],
  ["Cc1n[nH]c2ccc(-c3cc(N[C@@H](CO)c4ccccc4)cnc3-c3ccsc3)cc12", "N"],
  ["Cc1n[nH]c2ccc(-c3cc(N[C@H](CO)c4ccccc4)cnc3-c3cc(Cl)ccc3O)cc12", "N"]
]}

###

- TEST_PROTOCOL: AUC (0 to infinity) in CD-1 mouse at 20 mg/kg, po by LC-MS/MS method
- Format: ADME, organism-based
- Design: dose 20 mg/kg, time infinity, route oral
- EXPERIMENTAL_SETUP: in vivo
METRIC_NAME: AUC(0-inf) (ng·h/mL)

{"columns": ["STRUCTURE_SMILES", "METRIC_NAME", "UNIT_ANNOTATION", "REPORTED_VALUE"],
 "data": [
  ["Cc1n[nH]c2ccc(-c3cc(N[C@@H](CO)c4ccccc4)cnc3-c3cc(F)ccc3O)cc12", "AUC(0-inf)", "ng·h/mL", 2410]
]}

###

- TARGET_UNDER_TEST: Platelet-derived growth factor receptor beta (Homo sapiens, UniProt P09619)
- Sequence (P09619 whole entry): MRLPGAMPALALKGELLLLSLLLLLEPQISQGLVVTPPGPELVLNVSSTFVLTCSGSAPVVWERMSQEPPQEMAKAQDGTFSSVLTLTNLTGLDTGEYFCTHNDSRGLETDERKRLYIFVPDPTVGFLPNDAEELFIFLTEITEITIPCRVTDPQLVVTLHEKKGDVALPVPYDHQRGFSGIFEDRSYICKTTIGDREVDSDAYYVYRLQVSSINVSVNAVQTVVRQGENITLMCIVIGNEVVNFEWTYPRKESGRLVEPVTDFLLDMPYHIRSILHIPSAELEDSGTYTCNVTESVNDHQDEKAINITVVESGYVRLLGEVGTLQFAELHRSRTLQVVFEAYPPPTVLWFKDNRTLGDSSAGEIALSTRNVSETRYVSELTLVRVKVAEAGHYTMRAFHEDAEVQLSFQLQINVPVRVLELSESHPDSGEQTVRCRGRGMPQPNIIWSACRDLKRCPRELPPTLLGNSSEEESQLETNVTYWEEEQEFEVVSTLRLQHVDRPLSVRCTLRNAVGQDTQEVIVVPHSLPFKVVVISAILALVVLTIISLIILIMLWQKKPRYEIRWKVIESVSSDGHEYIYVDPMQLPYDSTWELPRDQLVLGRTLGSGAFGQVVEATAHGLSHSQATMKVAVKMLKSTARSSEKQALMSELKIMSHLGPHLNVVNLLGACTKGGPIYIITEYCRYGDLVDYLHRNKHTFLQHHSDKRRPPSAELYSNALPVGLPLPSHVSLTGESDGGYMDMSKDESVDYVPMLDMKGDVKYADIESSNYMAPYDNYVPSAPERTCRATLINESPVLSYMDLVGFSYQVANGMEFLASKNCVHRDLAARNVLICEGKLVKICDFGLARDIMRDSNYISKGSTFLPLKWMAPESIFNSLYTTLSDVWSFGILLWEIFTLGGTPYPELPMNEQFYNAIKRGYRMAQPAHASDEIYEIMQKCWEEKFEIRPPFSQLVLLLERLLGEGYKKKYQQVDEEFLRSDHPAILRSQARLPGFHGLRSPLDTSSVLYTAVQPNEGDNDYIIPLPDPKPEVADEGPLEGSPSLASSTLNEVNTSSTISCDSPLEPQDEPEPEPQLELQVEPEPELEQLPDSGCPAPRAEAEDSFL
- TEST_PROTOCOL: Inhibition of recombinant PDGFR-beta (unknown origin) using poly (Glu,Tyr) 4:1 as substrate after 60 mins by ELISA
METRIC_NAME: IC50

{"columns": ["STRUCTURE_SMILES", "METRIC_NAME", "REPORTED_VALUE"],
 "data": [
  ["OC[C@H](Nc1cnc(-c2cc(Cl)ccc2O)c(-c2ccc3cnccc3c2)c1)c1ccccc1", "IC50", "1 to 10 nM"],
  ["Cc1n[nH]c2ccc(-c3cc(N[C@@H](CO)c4ccccc4)cnc3-c3cc(F)ccc3O)cc12", "IC50", "> 10 nM"],
  ["Cc1n[nH]c2ccc(-c3cc(N[C@@H](CO)c4ccccc4)cnc3-c3cc(Cl)ccc3O)cc12", "IC50", "> 100 nM"],
  ["Cc1n[nH]c2ccc(-c3cc(N[C@@H](CO)c4ccccc4)cnc3-c3ccc(F)cc3O)cc12", "IC50", "1 to 10 nM"]
]}

###

- TARGET_UNDER_TEST: Proto-oncogene tyrosine-protein kinase Src (Homo sapiens)
- Sequence (P12931 2-536 limits assumed): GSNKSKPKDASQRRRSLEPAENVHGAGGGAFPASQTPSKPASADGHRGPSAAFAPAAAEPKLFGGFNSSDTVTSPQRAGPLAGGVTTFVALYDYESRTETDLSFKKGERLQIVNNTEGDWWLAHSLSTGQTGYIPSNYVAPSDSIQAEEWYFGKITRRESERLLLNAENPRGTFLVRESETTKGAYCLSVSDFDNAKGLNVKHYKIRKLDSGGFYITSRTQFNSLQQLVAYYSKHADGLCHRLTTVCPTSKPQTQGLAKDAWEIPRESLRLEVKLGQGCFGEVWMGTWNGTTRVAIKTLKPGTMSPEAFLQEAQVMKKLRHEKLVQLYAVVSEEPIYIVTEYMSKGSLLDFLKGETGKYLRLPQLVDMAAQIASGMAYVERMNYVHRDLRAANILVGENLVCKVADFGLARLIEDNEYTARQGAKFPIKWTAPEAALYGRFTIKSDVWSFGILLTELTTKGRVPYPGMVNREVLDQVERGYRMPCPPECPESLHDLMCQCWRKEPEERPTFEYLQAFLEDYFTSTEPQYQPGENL
- TEST_PROTOCOL: Inhibition of recombinant c-Src (unknown origin) using poly (Glu,Tyr) 4:1 as substrate after 60 mins by ELISA
Below, each entry is listed alongside its reported IC50.
METRIC_NAME: IC50

{"columns": ["STRUCTURE_SMILES", "TARGET_UNDER_TEST", "REPORTED_VALUE"],
 "data": [
  ["Cc1n[nH]c2ccc(-c3cc(N[C@@H](CO)c4ccccc4)cnc3-c3cc(Cl)ccc3O)cc12", "Proto-oncogene tyrosine-protein kinase Src (Homo sapiens)", "3.9 nM"],
  ["OC[C@H](Nc1cnc(-c2cc(Cl)ccc2O)c(-c2ccc3cnccc3c2)c1)c1ccccc1", "Proto-oncogene tyrosine-protein kinase Src (Homo sapiens)", "6.4 nM"],
  ["Cc1n[nH]c2ccc(-c3cc(N[C@@H](CO)c4ccccc4)cnc3-c3cc(F)ccc3O)cc12", "Proto-oncogene tyrosine-protein kinase Src (Homo sapiens)", "5.7 nM"],
  ["Cc1n[nH]c2ccc(-c3cc(N[C@@H](CO)c4ccccc4)cnc3-c3ccc(F)cc3O)cc12", "Proto-oncogene tyrosine-protein kinase Src (Homo sapiens)", "6 nM"]
]}

###

- TEST_PROTOCOL: MRT in CD-1 mouse at 5 mg/kg, iv by LC-MS/MS method
- Type: ADME, organism-based
- EXPERIMENTAL_SETUP: in vivo

{"columns": ["STRUCTURE_SMILES", "MRT"],
 "data": [
  ["Cc1n[nH]c2ccc(-c3cc(N[C@@H](CO)c4ccccc4)cnc3-c3cc(F)ccc3O)cc12", "3.74 h"]
]}

###

- TARGET_UNDER_TEST: UniProt P22607
- Sequence (P22607 whole entry): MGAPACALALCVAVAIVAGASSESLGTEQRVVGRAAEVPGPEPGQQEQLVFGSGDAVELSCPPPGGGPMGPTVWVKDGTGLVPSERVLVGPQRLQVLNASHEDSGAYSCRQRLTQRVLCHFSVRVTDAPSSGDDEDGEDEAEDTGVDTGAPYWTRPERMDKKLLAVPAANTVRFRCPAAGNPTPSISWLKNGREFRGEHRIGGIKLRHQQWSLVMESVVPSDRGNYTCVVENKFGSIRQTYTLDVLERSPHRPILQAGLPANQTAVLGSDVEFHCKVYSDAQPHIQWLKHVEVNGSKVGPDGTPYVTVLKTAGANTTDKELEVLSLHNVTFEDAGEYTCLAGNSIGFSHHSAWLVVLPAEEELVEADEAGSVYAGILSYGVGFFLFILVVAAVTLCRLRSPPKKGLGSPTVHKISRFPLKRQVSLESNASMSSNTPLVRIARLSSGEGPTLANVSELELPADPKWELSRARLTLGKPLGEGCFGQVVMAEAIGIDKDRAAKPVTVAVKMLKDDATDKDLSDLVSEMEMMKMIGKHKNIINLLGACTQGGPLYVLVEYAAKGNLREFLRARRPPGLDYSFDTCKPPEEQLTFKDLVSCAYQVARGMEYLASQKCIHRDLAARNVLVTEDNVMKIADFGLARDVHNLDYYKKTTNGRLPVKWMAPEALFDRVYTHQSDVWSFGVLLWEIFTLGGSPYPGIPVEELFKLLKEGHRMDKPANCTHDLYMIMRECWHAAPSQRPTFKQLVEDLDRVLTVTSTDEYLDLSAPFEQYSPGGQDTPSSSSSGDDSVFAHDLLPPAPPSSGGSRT
- TEST_PROTOCOL: Inhibition of recombinant human FGFR3 using poly (Glu,Tyr) 4:1 as substrate after 60 mins by ELISA
IC50 overview

{"columns": ["STRUCTURE_SMILES", "IC50"],
 "data": [
  ["Cc1n[nH]c2ccc(-c3cc(N[C@@H](CO)c4ccccc4)cnc3-c3ccccc3C(N)=O)cc12", "388 nM"],
  ["Cc1n[nH]c2ccc(-c3cc(N[C@@H](CO)c4ccccc4)cnc3-c3ccoc3)cc12", "> 1000 nM"],
  ["Cc1n[nH]c2ccc(-c3cc(N[C@@H](CO)c4ccccc4)cnc3-c3ccccc3F)cc12", "431 nM"],
  ["Cc1n[nH]c2ccc(-c3cc(NC[C@H](O)c4ccccc4)cnc3-c3cc(Cl)ccc3O)cc12", "401 nM"],
  ["CC(=O)Nc1ccc(-c2cc(N[C@@H](CO)c3ccccc3)cnc2-c2cc(Cl)ccc2O)cc1", "> 1000 nM"],
  ["Cc1n[nH]c2ccc(-c3cc(N[C@@H](CO)c4ccccc4)cnc3-c3cccc4cc[nH]c34)cc12", "561 nM"],
  ["Cc1n[nH]c2ccc(-c3cc(NCCO)cnc3-c3cc(F)ccc3O)cc12", "> 1000 nM"],
  ["COc1ccccc1-c1ncc(N[C@@H](CO)c2ccccc2)cc1-c1ccc2[nH]nc(C)c2c1", "> 1000 nM"],
  ["Cc1n[nH]c2ccc(-c3cc(N[C@@H](CO)c4ccccc4)cnc3-c3cc(F)cc(F)c3O)cc12", "58.4 nM"],
  ["Cc1ccc(O)c(-c2ncc(N[C@@H](CO)c3ccccc3)cc2-c2ccc3[nH]nc(C)c3c2)c1", "22.8 nM"],
  ["Cc1n[nH]c2ccc(-c3cc(N[C@@H](CO)c4ccccc4)cnc3-c3cc(F)ccc3O)cc12", "27.5 nM"],
  ["OC[C@H](Nc1cnc(-c2cc(Cl)ccc2O)c(-c2ccc3cnccc3c2)c1)c1ccccc1", "23 nM"],
  ["Cc1n[nH]c2ccc(-c3cc(N[C@@H](CO)c4ccccc4)cnc3-c3ccccc3C(F)(F)F)cc12", "> 1000 nM"],
  ["OC[C@H](Nc1cnc(-c2cc(Cl)ccc2O)c(-c2ccc3[nH]ccc3c2)c1)c1ccccc1", "> 1000 nM"],
  ["Cc1n[nH]c2ccc(-c3cc(N[C@@H](CO)c4ccccc4)cnc3-c3cccs3)cc12", "> 1000 nM"],
  ["Cc1n[nH]c2ccc(-c3cc(N[C@@H](CO)c4ccccc4)cnc3-c3ccco3)cc12", "> 1000 nM"]
]}
